From: patent US20240109974A1

- ASSAY TARGET: T1, human TNFR2 (Novoprotein, Cat #C830) (human, UniProt P20333 23-257, limits assumed)
- T1 construct: construct not described; also called human TNFR2 protein
- T1 sequence (looked up): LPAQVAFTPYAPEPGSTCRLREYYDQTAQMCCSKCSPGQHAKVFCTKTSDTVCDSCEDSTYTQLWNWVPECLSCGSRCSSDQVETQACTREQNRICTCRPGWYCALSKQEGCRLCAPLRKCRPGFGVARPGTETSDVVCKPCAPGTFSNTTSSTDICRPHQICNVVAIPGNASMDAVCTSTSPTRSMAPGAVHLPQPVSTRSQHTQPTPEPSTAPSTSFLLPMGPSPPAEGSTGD
- MEASUREMENT DESCRIPTION: competition ELISA, competitor human TNFα-Biotin; IC50 against 219-WT
REPORTED ENDPOINT: % Relative activity (WT antibody/test antibody) (%)
Response body: numeric value in %, unit text excluded.

Fill in: % Relative activity (WT antibody/test antibody) of 219-Hu2 (antibody, V domains shown, also called VH4 + VL5) VH: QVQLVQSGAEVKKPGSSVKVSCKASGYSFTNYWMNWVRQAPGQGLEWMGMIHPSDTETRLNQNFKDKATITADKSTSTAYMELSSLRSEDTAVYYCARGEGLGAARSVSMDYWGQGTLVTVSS VL: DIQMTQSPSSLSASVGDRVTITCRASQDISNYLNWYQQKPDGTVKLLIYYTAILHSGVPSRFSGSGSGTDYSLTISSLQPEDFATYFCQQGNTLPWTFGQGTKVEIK is ___
120
